- assay system: T1, HumanB7-H4 (Homo sapiens, UniProt Q7Z7D3)
- T1 construct: Human B7H4 ECD; FLAG; 10His; made in house
- T1 sequence (Q7Z7D3 25-259 limits assumed): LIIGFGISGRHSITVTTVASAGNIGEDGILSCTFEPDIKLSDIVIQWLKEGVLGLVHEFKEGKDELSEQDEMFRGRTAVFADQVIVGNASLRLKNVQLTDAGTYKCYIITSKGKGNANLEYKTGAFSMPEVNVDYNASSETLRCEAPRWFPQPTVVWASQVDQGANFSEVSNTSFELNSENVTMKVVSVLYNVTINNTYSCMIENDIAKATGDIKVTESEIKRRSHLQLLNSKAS
- experimental details: ForteBio Octet affinity
- Assay type: binding
- assay conditions: hIgG1 (n = 1)
reported endpoint: kdis (s⁻¹)
Give the value in s⁻¹ but do not write s⁻¹ after it.

[
  {
    "molecule": "ZY0EP0-C07: anti-B7-H4 antibody clone, VH SEQ ID NO: 39, VL SEQ ID NO: 40 (antibody, V domains shown) VH: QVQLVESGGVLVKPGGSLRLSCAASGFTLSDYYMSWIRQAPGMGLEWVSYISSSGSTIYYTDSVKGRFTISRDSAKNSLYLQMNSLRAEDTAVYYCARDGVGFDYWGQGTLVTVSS VL: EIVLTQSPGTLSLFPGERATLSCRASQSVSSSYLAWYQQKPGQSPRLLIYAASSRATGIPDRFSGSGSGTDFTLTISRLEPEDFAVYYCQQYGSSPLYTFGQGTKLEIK",
    "unit": "s⁻¹",
    "kdis": 0.000363
  }
]

Now look at this one.
Please give the measured kdis for this molecule: ZY0E05-E07: anti-B7-H4 antibody clone, VH SEQ ID NO: 37, VL SEQ ID NO: 38 (antibody, V domains shown) VH: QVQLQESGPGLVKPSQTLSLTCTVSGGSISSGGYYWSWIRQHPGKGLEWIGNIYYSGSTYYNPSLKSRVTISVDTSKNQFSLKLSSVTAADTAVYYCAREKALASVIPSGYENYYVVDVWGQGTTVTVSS VL: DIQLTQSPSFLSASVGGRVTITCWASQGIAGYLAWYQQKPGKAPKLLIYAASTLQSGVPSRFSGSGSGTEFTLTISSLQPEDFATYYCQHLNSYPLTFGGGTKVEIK
0.000318
